target_entity: human TYK2 (JH2domain-pseudokinase) (Homo sapiens (Human))
Sequence (P29597 556-888): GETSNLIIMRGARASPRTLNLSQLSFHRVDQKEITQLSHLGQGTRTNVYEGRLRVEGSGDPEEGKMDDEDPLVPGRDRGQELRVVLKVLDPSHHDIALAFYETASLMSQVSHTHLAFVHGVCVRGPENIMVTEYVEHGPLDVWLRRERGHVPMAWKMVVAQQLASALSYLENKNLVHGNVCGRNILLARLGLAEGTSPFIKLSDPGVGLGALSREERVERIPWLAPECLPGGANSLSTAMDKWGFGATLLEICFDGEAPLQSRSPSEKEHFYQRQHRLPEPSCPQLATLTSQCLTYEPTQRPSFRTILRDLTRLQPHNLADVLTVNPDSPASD
test_summary: TYK2 JH2 Domain Binding Assay (KINOMEscan competition binding)
test_settings: KINOMEscan; 11-point 3-fold dilution, top concentration 30,000 nM; Kd measurements in duplicate; read-out: TYK JH2 (Kd)
pKd: −log10 of the molar value. Structures can show the parent of a compound that is named as a salt.
measurement_label: pKd

Consider the reported pKd for these compounds:
CNC(=O)c1cnc(N2CCN(C(C)=O)CC2C)nc1Nc1ccccc1S(C)(=O)=O (centres unmarked) [Compound 76] :: 6.68
CNC(=O)c1cnc(N2CC[C@@H](C(=O)NC)C2)nc1Nc1ccc(C2CC2)nc1 [Compound 9] :: 6.62
CC1CNCCN1c1ncc(C(N)=O)c(Nc2ccc(C3CC3)nc2)n1 (centres unmarked) [Compound 12] :: 6.10
COc1ccccc1Nc1nc(N2CCN(C(=O)OC(C)(C)C)CC2C)ncc1C(N)=O (centres unmarked) [Compound 43] :: 5.12

A: CNC(=O)c1cnc(N2CCC(C(=O)O)CC2)nc1Nc1ccc(C2CC2)nc1 [Compound 19]
B: CNC(=O)c1cnc(N2CCCN(C(C)=O)CC2)nc1Nc1ccc(C2CC2)nc1 [Compound 21]
C: CNC(=O)c1cnc(N2CCCNCC2)nc1Nc1ccccc1S(C)(=O)=O [Compound 67, hydrochloride]
D: CC(=O)N1CCN(c2ncc(C(N)=O)c(Nc3ccc(C4CC4)nc3)n2)C(C)C1 (centres unmarked) [Compound 11]
query: List the 4 entries from lowest pKd to highest pKd value. # respond with the labels, arranged in the requested order
result: B, A, C, D

Provenance of the data: patent US20250257051A1
